- test system: HLA-DR DRB1*1101 (DR11) (Homo sapiens, UniProt P01903+P01911, A100R/A169T/A87E/I96F/K41T/L162R/M171V/P40S/Q125H/Q178H/Q39Y/Q99D/R42S/S66Y/T262R/V115G/W38E)
- Sequence (P01903 26-254 limits assumed, other chains not shown): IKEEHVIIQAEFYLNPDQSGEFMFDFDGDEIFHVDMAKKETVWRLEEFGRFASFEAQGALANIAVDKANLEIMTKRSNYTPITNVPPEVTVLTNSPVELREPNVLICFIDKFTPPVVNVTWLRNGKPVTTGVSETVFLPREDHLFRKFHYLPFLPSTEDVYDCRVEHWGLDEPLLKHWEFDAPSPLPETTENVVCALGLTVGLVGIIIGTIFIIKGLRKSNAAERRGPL
- procedure summary: biochemical
- Assay type: binding
No end group written: not given here.
recorded endpoint: IC50 (nM)

INSERT INTO results (entry_sequence, unit_of_measure, meas_value) VALUES
  ('GAPLAGAARALAHGV', 'nM', 9.5),
  ('EYLILSARDVLAVVS', 'nM', 6860),
  ('VGGVYLAPRRGPRLGV', 'nM', 35),
  ('GAPLGGALRALAHGV', 'nM', 83),
  ('GAPLGGAARAAAHGV', 'nM', 3630),
  ('GAPLGGAARLLAHGV', 'nM', 80),
  ('VGGVYLLARRGPRLGV', 'nM', 6.5);
